# experimental system: AbdA (Hox);Exd/Hth-HM (Drosophila melanogaster?;Drosophila …, UniProt P29555;P40427;O46339 261-590;1-376;127-211, |)
# Sequence (P29555 261-590, chain 1 of 3): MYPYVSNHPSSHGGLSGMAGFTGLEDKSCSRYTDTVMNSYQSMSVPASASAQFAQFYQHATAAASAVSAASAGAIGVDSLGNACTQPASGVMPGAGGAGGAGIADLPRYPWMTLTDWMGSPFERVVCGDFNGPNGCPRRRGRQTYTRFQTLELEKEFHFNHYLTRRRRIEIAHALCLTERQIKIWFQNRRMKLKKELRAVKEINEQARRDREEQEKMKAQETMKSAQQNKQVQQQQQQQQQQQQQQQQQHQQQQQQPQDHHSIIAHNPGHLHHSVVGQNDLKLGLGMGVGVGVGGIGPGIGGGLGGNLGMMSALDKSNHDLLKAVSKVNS
# Sequence (P40427 whole entry, chain 2 of 3): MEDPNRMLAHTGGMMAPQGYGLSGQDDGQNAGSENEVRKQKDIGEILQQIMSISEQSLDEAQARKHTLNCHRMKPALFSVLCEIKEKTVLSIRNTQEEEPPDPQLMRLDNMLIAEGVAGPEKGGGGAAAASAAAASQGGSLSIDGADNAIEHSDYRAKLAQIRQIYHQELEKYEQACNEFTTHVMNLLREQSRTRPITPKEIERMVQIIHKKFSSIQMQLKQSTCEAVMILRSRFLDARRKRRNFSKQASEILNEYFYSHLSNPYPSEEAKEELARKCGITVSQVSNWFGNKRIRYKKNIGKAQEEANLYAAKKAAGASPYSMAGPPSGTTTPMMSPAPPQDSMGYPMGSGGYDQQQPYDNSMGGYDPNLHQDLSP
# Sequence (O46339 127-211, chain 3 of 3): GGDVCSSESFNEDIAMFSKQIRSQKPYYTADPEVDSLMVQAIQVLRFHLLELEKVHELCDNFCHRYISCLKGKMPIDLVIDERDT
# measurement notes: EMSA; EMSA, 20 ul, 30 min, room temperature; 5X buffer as printed: 20% glycerol, 1 mg/ml BSA, 2.5 mM EDTA, '50mM 1M tris' pH 7.5, 50 mM KCl, 5 mM MgCl2, 2.5 mM DTT, 90 ug/ml poly(dI-dC); proteins 100-200 ng
# measurement conditions: protein: recombinant;recombinant; tags: 6xHis;6xHis; copies: 1;1;1
assay readout: binding result

Documented binding result of motif-27 (dsDNA) DNA 1: TATATGTGGAACCACCTTGAAAGTCTACTGCCTGATTAGT DNA 2: ACTAATCAGGCAGTAGACTTTCAAGGTGGTTCCACATATA : binds

# binder motif-29 (Hox-Exd consensus) (dsDNA) DNA 1: CTCAAGCGCGTGATGAATGTAATCTTCG DNA 2: CGAAGATTACATTCATCACGCGCTTGAG ; its binding result = binds
